tested on: Akt phosphorylation in Panc1 (G12D) cells; assay: In-Cell Western Akt phosphorylation; assay type: cell-based; settings: EC50, one hour treatment; read-out: In-Cell Western Akt phosporylation Panc1 (G12D)
pEC50: −log10 of the molar value.
Endpoint: pEC50

Would you please look over these solved cases?
Cc1nc(Cc2ccccn2)sc1C(=O)Nc1nc(-c2ccc3c(c2)CCC(=O)N3)cs1 [Compound 4893]: < 4.60
Cc1nc(-n2ccnc2)sc1C(=O)Nc1nc(-c2ccc3c(c2)CCC(=O)N3)cs1 [Compound 4894]: < 4.60

// moving on: another record for pEC50
Query: Query (molecule): Cc1nc(N2CCOCC2)sc1C(=O)Nc1nc(-c2ccc3c(c2)CCC(=O)N3)cs1 [Compound 4895] ; field requested: pEC50
Response: < 4.60
